Test system: SNB-75 CNS
Test description: NCI tumour cell line growth inhibition, 48 h

>  <Molecule>
C=CCO/N=C/c1cc(NC(=S)c2ccoc2C)ccc1Cl

>  <TGI>
38.2 µM

$$$$
>  <Molecule>
COc1ccccc1/C=C/C(=O)/C=C/c1ccccc1O

>  <TGI>
2.57 µM

$$$$
>  <Molecule>
Cc1ccc(S(=O)(=O)N/N=C(\c2nc3ccc([N+](=O)[O-])cc3[nH]c2=O)C(O)c2ccccc2Cl)cc1 (stereo not given)

>  <TGI>
> 100 µM

$$$$
>  <Molecule>
C(=N\NC1=NCCCN1)/c1ccc2ccccc2c1

>  <TGI>
18.4 µM

$$$$
>  <Molecule>
CC(C)COP(=O)(OCC(C)C)C(NS(=O)(=O)c1ccccc1)(C(F)(F)F)C(F)(F)F

>  <TGI>
12.6 µM

$$$$
>  <Molecule>
COc1ccc(CC(C)C(C)Cc2ccc(OC)c(OC)c2)cc1OC (stereo not given)

>  <TGI>
> 1400 µM

$$$$
>  <Molecule>
COc1cc2cnc3c4ccccc4ccc3c2cc1OC

>  <TGI>
> 100 µM

$$$$
>  <Molecule>
CC(C)c1ccccc1NC(=O)/C(Cl)=C1/Sc2ccccc2NC1=O

>  <TGI>
87.9 µM

$$$$
>  <Molecule>
O=C1C2=C(c3ccccc31)C(c1ccccc1Cl)N1C(=O)CCSC1=N2 (stereo not given)

>  <TGI>
> 100 µM

$$$$
>  <Molecule>
Cc1ccc2nc3c(Cl)c(C)c(=O)cc-3sc2c1

>  <TGI>
> 100 µM

$$$$
>  <Molecule>
CCCCC1c2c([nH]c3ccccc23)C2C(=O)N(c3ccc(OC)cc3)C(=O)C2C1CCC (stereo not given)

>  <TGI>
6.5 µM

$$$$
>  <Molecule>
CCCn1c(CN(Cc2nc3ccccc3n2CCC)Cc2nc3ccccc3n2CCC)nc2ccccc21

>  <TGI>
75.1 µM

$$$$
>  <Molecule>
Cn1c2ccccc2c2c(=O)c3ccccc3[nH]c21

>  <TGI>
> 100 µM

$$$$
>  <Molecule>
CO[C@]12CC(=O)C3(C(C[C@H]4CC5CC=C6C[C@@H](OC(C)=O)CC[C@]6(OC(C)=O)C5C[C@@]43C)C1)C1C[C@H]3[C@@H]4CC=C5C[C@@H](OC(C)=O)CC[C@]5(OC(C)=O)[C@H]4CC[C@]3(C)C12 (stereo not given in full)

>  <TGI>
94.2 µM

$$$$
>  <Molecule>
COCCOCCOCc1n(Cc2ccc3ccccc3n2)c2ccccc2[n+]1Cc1ccc2ccccc2c1

>  <TGI>
1.35 µM

$$$$
>  <Molecule>
CN(C)CCCN1C(=S)N(CCCN(C)C)c2c3cc(O)ccc3nc3c([N+](=O)[O-])ccc1c23

>  <TGI>
16.9 µM

$$$$
>  <Molecule>
CS(=O)(=O)OCCn1c(=O)n(CCOS(C)(=O)=O)c(=O)n(CCOS(C)(=O)=O)c1=O

>  <TGI>
> 100 µM

$$$$
>  <Molecule>
CC(=O)OC1COC(n2c(=S)n(-c3ccccc3)c(=O)c3cc(Br)ccc32)C(OC(C)=O)C1OC(C)=O (stereo not given)

>  <TGI>
30.6 µM

$$$$
>  <Molecule>
O=C(O)CCC(NC(=S)S)C(=O)O.[Na+].[Zn+2] (stereo not given)

>  <TGI>
> 50 µM

$$$$
>  <Molecule>
COc1cc(C2CC(C)(Nc3ccccc3)Oc3cc4c(cc32)OCO4)cc(OC)c1OC (stereo not given)

>  <TGI>
> 100 µM

$$$$
>  <Molecule>
O=S(=O)(CCOCc1ccc(-c2ccc3ncnc(Nc4ccc(OCc5cccc(F)c5)c(Cl)c4)c3c2)o1)c1ccccc1

>  <TGI>
> 25 µM

$$$$
>  <Molecule>
CC(=O)N[C@H](C(=O)N[C@@H](CCCNC(=N)N)C(=O)N[C@@H](CCCCN)C(=O)N[C@@H](CCCNC(=N)N)C(=O)N[C@]1(C)CCCCCC/C=C\CCC[C@@](C)(C(=O)N[C@@H](CCCNC(=N)N)C(=O)N[C@@H](CCC(=O)O)C(=O)N[C@@H](CC(C)C)C(=O)N[C@H](C(=O)N[C@@H](CCC(=O)O)C(N)=O)C(C)C)NC(=O)[C@H](CCC(N)=O)NC(=O)[C@H](CC(C)C)NC(=O)[C@H](CC(C)C)NC(=O)[C@H](CCCNC(=N)N)NC(=O)[C@H](CCCNC(=N)N)NC(=O)[C@H](CC(C)C)NC1=O)C(C)C

>  <TGI>
13.1 µM

$$$$
>  <Molecule>
OB1OCc2cc(/C=C/c3cccc(C(F)(F)F)c3)ccc21

>  <TGI>
6.2 µM

$$$$
>  <Molecule>
O=C/C(=C(/Cl)c1ccc(O)cc1)c1ccccc1

>  <TGI>
> 67.2 µM

$$$$
>  <Molecule>
Cc1cc2c(Br)cc(Br)c(O)c2nc1C(=O)c1ccccc1

>  <TGI>
> 100 µM

$$$$
>  <Molecule>
COc1cccc(/C=C2\CCC(C)(CN(C)C)C2=O)c1 (stereo not given)

>  <TGI>
> 100 µM

$$$$
>  <Molecule>
NC(=O)C1(N2CCCCC2)CCN(CCCC(=O)c2ccc(F)cc2)CC1

>  <TGI>
> 100 µM

$$$$
>  <Molecule>
CC(CC(=O)Nc1ccc(NC(=O)CC(C)N=NC(N)=S)cc1)N=NC(N)=S (stereo not given)

>  <TGI>
> 100 µM

$$$$
>  <Molecule>
Cc1cn(C2OC(C)(CO)C(O)C2O)c(=O)[nH]c1=O (stereo not given)

>  <TGI>
> 100 µM

$$$$
>  <Molecule>
CC12CC(=O)C3C(C(=O)C1)C32C (stereo not given)

>  <TGI>
> 100 µM

$$$$
